target: ligand binding domain of human FXR (Homo sapiens (Human)); experiment: FXR ligand binding assay (LanthaScreen FRET); conditions: read-out: % Efficacy
Sequence (Q96RI1 262-486): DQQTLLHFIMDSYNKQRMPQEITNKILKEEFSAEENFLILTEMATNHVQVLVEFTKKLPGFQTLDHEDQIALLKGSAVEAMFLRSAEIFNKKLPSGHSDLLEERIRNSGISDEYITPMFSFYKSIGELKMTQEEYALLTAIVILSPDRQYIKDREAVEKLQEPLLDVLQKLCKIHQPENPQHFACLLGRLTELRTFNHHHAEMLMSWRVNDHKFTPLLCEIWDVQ
Label 1.0 when Emax is strictly below 80%; at or above that, label 0.0.

Use the examples below as a reference point.
{"molecule": "O=C(O)CNC(=O)c1cc(F)c2nc(N3[C@@H]4CC[C@H]3C[C@@H](OC(=O)c3c(-c5c(Cl)cccc5Cl)noc3C3CC3)C4)sc2c1 [Compound I-4]", "label-value": 1.0}
{"molecule": "CCCS(=O)(=O)NC(=O)c1cc(F)c2nc(N3[C@@H]4CC[C@H]3C[C@@H](OC(=O)c3c(-c5c(Cl)cccc5Cl)noc3C3(F)CC3)C4)sc2c1 [Compound I-62]", "label-value": 0.0}
{"molecule": "O=C(O)c1cc(C2CC2)c2nc(N3[C@@H]4CC[C@H]3C[C@@H](OC(=O)c3c(-c5c(Cl)cccc5Cl)noc3C3CC3)C4)sc2c1 [Compound I-12]", "label-value": 0.0}
{"molecule": "Cc1cc(C(=O)O)cc2sc(N3[C@@H]4CC[C@H]3C[C@@H](OC(=O)c3c(-c5ccccc5C(F)(F)F)noc3C3CC3)C4)nc12 [Compound I-61]", "label-value": 0.0}
{"molecule": "CS(=O)(=O)NC(=O)c1cc(F)c2nc(N3[C@@H]4CC[C@H]3C[C@@H](OC(=O)c3c(-c5c(Cl)cccc5Cl)noc3C3CC3)C4)sc2c1 [Compound I-6]", "label-value": 0.0}

Consider the molecule CS(=O)(=O)NC(=O)c1ccc(N2[C@@H]3CC[C@H]2C[C@@H](OC(=O)c2c(-c4c(Cl)cccc4Cl)noc2C2CC2)C3)c(F)c1 [Compound I-51] . Is its Emax strictly less than 80%? 0.0

Consider the molecule O=C(O)c1ccc(N2[C@@H]3CC[C@H]2C[C@@H](OC(=O)c2c(-c4c(Cl)cccc4Cl)noc2C2CC2)C3)c(Cl)c1 [Compound I-36] . Is its Emax strictly less than 80%? 0.0

Consider the molecule N#Cc1ccc(N2[C@@H]3CC[C@H]2C[C@@H](OC(=O)c2c(-c4c(Cl)cccc4Cl)noc2C2CC2)C3)cc1O [Compound I-53] . Is its Emax strictly less than 80%? 1.0

Consider the molecule O=C(O[C@H]1C[C@H]2CC[C@@H](C1)N2c1ccc2c(C(=O)O)noc2c1)c1c(-c2c(Cl)cccc2Cl)noc1C1CC1 [Compound I-29] . Is its Emax strictly less than 80%? 0.0

Consider the molecule O=C(OCC(=O)N(CCO)CCO)c1cc(F)c2nc(N3[C@@H]4CC[C@H]3C[C@@H](OC(=O)c3c(-c5c(Cl)cccc5Cl)noc3C3CC3)C4)sc2c1 [Compound I-64] . Is its Emax strictly less than 80%? 1.0

Consider the molecule O=C(O)c1ccc(N2[C@@H]3CC[C@H]2C[C@@H](OC(=O)c2c(-c4c(Cl)cccc4OC(F)F)noc2C2CC2)C3)c(F)c1 [Compound I-43] . Is its Emax strictly less than 80%? 1.0

###

target: ligand binding domain of human FXR (Homo sapiens (Human)); test: FXR ligand binding assay (LanthaScreen FRET); conditions: FXR ligand binding assay, -log EC50;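 also: TR-FRET coactivator recruitment: ligand-induced binding of fluorescein-labelled SRC2-2 peptide to GST-tagged FXR LBD detected via Tb anti-GST antibody, serial compound dilutions, 3-parameter logistic fit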
measured-quantity: FXR pEC50
Answers are plain numbers.

Field: example entries. Status: answers known.
{"molecule": "Cc1onc(-c2c(Cl)cccc2Cl)c1C(=O)O[C@H]1C[C@H]2CC[C@@H](C1)N2c1nc2c(F)cc(C(=O)O)cc2s1", "FXR pEC50": 7.1}
{"molecule": "O=C(O)c1cc(F)c2nc(N3[C@@H]4CC[C@H]3C[C@@H](OC(=O)c3c(-c5c(Cl)cccc5OC(F)F)noc3C3CC3)C4)sc2c1", "FXR pEC50": 7.4}
{"molecule": "O=C(NS(=O)(=O)CC1CC1)c1ccc(N2[C@@H]3CC[C@H]2C[C@H](OC(=O)c2c(-c4c(Cl)cccc4Cl)noc2C2CC2)C3)cc1", "FXR pEC50": 8}
{"molecule": "O=C(O)c1cc(F)c2nc(N3[C@@H]4CC[C@H]3C[C@@H](OC(=O)c3c(-c5c(Cl)cccc5Cl)noc3C3(F)CC3)C4)sc2c1", "FXR pEC50": 8.2}
{"molecule": "CCCS(=O)(=O)NC(=O)c1ccc(N2[C@@H]3CC[C@H]2C[C@@H](OC(=O)c2c(-c4c(Cl)cccc4Cl)noc2C2CC2)C3)cc1", "FXR pEC50": 8.3}
{"molecule": "O=C(O)c1cc(F)c2nc(N3[C@@H]4CC[C@H]3C[C@@H](OC(=O)c3c(-c5c(F)cccc5F)noc3C3CC3)C4)sc2c1", "FXR pEC50": 7.4}
{"molecule": "O=C(Cc1c(-c2c(Cl)cccc2Cl)noc1C1CC1)O[C@H]1C[C@H]2CC[C@@H](C1)N2c1nc2c(F)cc(C(=O)O)cc2s1", "FXR pEC50": 7.4}
{"molecule": "O=C(NS(=O)(=O)C1CC1)c1ccc(N2[C@@H]3CC[C@H]2C[C@H](OC(=O)c2c(-c4c(Cl)cccc4Cl)noc2C2CC2)C3)cc1", "FXR pEC50": 8.2}

Batch of 8 molecules: report FXR pEC50 for each.
1. CC(C)S(=O)(=O)NC(=O)c1ccc(N2[C@@H]3CC[C@H]2C[C@@H](OC(=O)c2c(-c4c(Cl)cccc4Cl)noc2C2CC2)C3)cc1
2. Cn1c(N2[C@@H]3CC[C@H]2C[C@@H](OC(=O)c2c(-c4c(Cl)cccc4Cl)noc2C2CC2)C3)nc2c(F)cc(C(=O)O)cc21
3. O=C(O)c1ccc(N2[C@@H]3CC[C@H]2C[C@@H](OC(=O)c2c(-c4c(Cl)cccc4Cl)noc2C2CC2)C3)cc1C(F)(F)F
4. O=C(O)c1cc(F)c2nc(N3[C@@H]4CC[C@H]3C[C@@H](OC(=O)c3c(C5CCC6(CC5)CC6)noc3C3CC3)C4)sc2c1
5. O=C(OCC(=O)N(CCO)CCO)c1cc(F)c2nc(N3[C@@H]4CC[C@H]3C[C@@H](OC(=O)c3c(-c5c(Cl)cccc5Cl)noc3C3CC3)C4)sc2c1
6. CC(C)(C)c1onc(-c2c(Cl)cccc2Cl)c1C(=O)OC1C[C@H]2CC[C@@H](C1)N2c1nc2c(F)cc(C(=O)O)cc2s1 (single isomer, unassigned)
7. Cc1cc(C(=O)O)cc2sc(N3[C@@H]4CC[C@H]3C[C@@H](OC(=O)c3c(-c5ccccc5C(F)(F)F)noc3C3CC3)C4)nc12
8. O=C(O)c1ccc(N2[C@@H]3CC[C@H]2C[C@@H](OC(=O)c2c(-c4c(Cl)cccc4Cl)noc2C2CC2)C3)cc1F

1: 7.8; 2: 6.6; 3: 7.7; 4: 7.2; 5: 6.6; 6: 7.2; 7: 7.1; 8: 7.7

Batch of 2 molecules: report FXR pEC50 for each.
1. O=C(O)c1cc(F)c2nc(N3[C@@H]4CC[C@H]3C[C@@H](OC(=O)c3c(-c5c(Cl)cccc5Cl)noc3C3CCC3)C4)sc2c1
2. O=C(O)c1cc(F)cc(N2[C@@H]3CC[C@H]2C[C@@H](OC(=O)c2c(-c4c(Cl)cccc4Cl)noc2C2CC2)C3)c1

1: 7.9; 2: 8

Batch of 3 molecules: report FXR pEC50 for each.
1. O=C(O)c1cc(F)c2nc(N3[C@@H]4CC[C@H]3C[C@@H](OC(=O)c3c(-c5ccccc5OC(F)(F)F)noc3C3CC3)C4)sc2c1
2. CCCS(=O)(=O)NC(=O)c1cc(F)c2nc(N3[C@@H]4CC[C@H]3C[C@@H](OC(=O)c3c(-c5c(Cl)cccc5Cl)noc3C3(F)CC3)C4)sc2c1
3. O=C(O)c1ccc(N2[C@@H]3CC[C@H]2C[C@@H](OC(=O)c2c(-c4c(Cl)cccc4Cl)noc2C2CC2)C3)c(C(F)(F)F)c1

1. 7.6
2. 7.4
3. 6.6

###

target: human Farnesoid X receptor ligand-binding domain/Gal4 DNA binding domain chimera (Homo sapiens (Human)); test: Cell-based FXR beta-lactamase reporter assay (FXR-UAS-bla HEK 293T cells); settings: cellular FXR beta-lactamase reporter assay, -log EC50; read-out: FXR pEC50 (converted)
Sequence (Q96RI1 262-486, change not shown): as the sequence (Q96RI1 262-486) above
measured-quantity: EC50 (nM)
One number for each entry, in nM.

Field: example entries. Status: answers known.
{"molecule": "O=C(O)c1cccc(S(=O)(=O)N2[C@@H]3CC[C@H]2C[C@@H](OC(=O)c2c(-c4c(Cl)cccc4Cl)noc2C2CC2)C3)c1 [Compound I-55]", "EC50 / nM": 1000}
{"molecule": "COc1cc2nc(N3[C@@H]4CC[C@H]3C[C@@H](OC(=O)c3c(-c5c(F)cccc5F)noc3C3CC3)C4)sc2cc1C(=O)O [Compound I-18]", "EC50 / nM": 251}
{"molecule": "Cn1cc(C(=O)O)c2ccc(N3[C@@H]4CC[C@H]3C[C@@H](OC(=O)c3c(-c5c(Cl)cccc5Cl)noc3C3CC3)C4)cc21 [Compound I-28]", "EC50 / nM": 25.1}

Batch of 8 molecules: report EC50 for each.
1. COc1cc(C(=O)O)ccc1N1[C@@H]2CC[C@H]1C[C@@H](OC(=O)c1c(-c3c(Cl)cccc3Cl)noc1C1CC1)C2 [Compound I-40]
2. COc1cc(C(=O)O)cc2sc(N3[C@@H]4CC[C@H]3C[C@@H](OC(=O)c3c(-c5c(Cl)cccc5Cl)noc3C3CC3)C4)nc12 [Compound I-8]
3. Cc1cc(C(=O)O)cc2sc(N3[C@@H]4CC[C@H]3C[C@@H](OC(=O)c3c(-c5ccccc5C(F)(F)F)noc3C3CC3)C4)nc12 [Compound I-61]
4. CN1c2cc(N3[C@@H]4CC[C@H]3C[C@@H](OC(=O)c3c(-c5c(Cl)cccc5Cl)noc3C3CC3)C4)ccc2C(=O)C1(F)F [Compound I-30]
5. O=C(O)c1cc(F)cc(N2[C@@H]3CC[C@H]2C[C@@H](OC(=O)c2c(-c4c(Cl)cccc4Cl)noc2C2CC2)C3)c1 [Compound I-42]
6. O=C(O)c1ccc(N2[C@@H]3CC[C@H]2C[C@@H](OC(=O)c2c(-c4c(Cl)cccc4Cl)noc2C2CC2)C3)c(C(F)(F)F)c1 [Compound I-38]
7. O=C(O)c1cc(OC(F)(F)F)c2nc(N3[C@@H]4CC[C@H]3C[C@@H](OC(=O)c3c(-c5c(Cl)cccc5Cl)noc3C3CC3)C4)sc2c1 [Compound I-9]
8. O=C(O[C@H]1C[C@H]2CC[C@@H](C1)N2c1ccc2c(C(=O)O)noc2c1)c1c(-c2c(Cl)cccc2Cl)noc1C1CC1 [Compound I-29]

1: 39.8; 2: 3.98; 3: 10; 4: 100; 5: 79.4; 6: 79.4; 7: 3.16; 8: 251
